# System: 171881-019-R-J1-PDC tumor spheroid viability
# MEASUREMENT_PROTOCOL: Anticancer human tumor 171881-019-R-J1-PDC patient-derived invasive breast carcinoma cell line growth inhibition [PI3K]; active means viability on the fitted dose curve at most 10% of control; inactive means the rest
# CONDITION_CONTEXT: second compound 1 µM; first compound 1 µM; spheroids with HUVEC and MSC
Pick one: active, inactive

Q) How was CCN1CCN(Cc2ccc(Nc3ncc(F)c(-c4cc(F)c5nc(C)n(C(C)C)c5c4)n3)nc2)CC1 + CC(Nc1ccc2c(c1)OCCn1cc(N3C(=O)OCC3C(F)F)nc1-2)C(N)=O classified in this test?
A) inactive

Q) How was C#Cc1c(F)ccc2cc(O)cc(-c3ncc4c(N5CC6CCC(C5)N6)nc(OCC56CCCN5CC(F)C6)nc4c3F)c12 (stereo not given) + CC(Nc1ncnc2nc[nH]c12)c1cc2cccc(Cl)c2c(=O)n1-c1ccccc1 classified in this test?
A) inactive

Q) How was C[C@@H](NC(=O)c1ncnc(N)c1Cl)c1ncc(C(=O)Nc2cc(C(F)(F)F)c(Cl)cn2)s1 + CC(Nc1ccc2c(c1)OCCn1cc(N3C(=O)OCC3C(F)F)nc1-2)C(N)=O classified in this test?
A) inactive

Q) How was C=CC(=O)N1CCN(c2nc(=O)n(-c3c(C)ccnc3C(C)C)c3nc(-c4c(O)cccc4F)c(F)cc23)C(C)C1 (stereo not given) + CC(Nc1ccc2c(c1)OCCn1cc(N3C(=O)OCC3C(F)F)nc1-2)C(N)=O classified in this test?
A) inactive

Q) How was Cn1nccc1Nc1nccc(-c2ccn(C(CO)c3ccc(Cl)c(F)c3)c(=O)c2)n1 (stereo not given) + Cc1nc(NC(=O)N2CCCC2C(N)=O)sc1-c1ccnc(C(C)(C)C(F)(F)F)c1 classified in this test?
A) active

====

# System: 171881-019-R-J1-PDC tumor spheroid viability
# MEASUREMENT_PROTOCOL: Anticancer human tumor 171881-019-R-J1-PDC cell line growth inhibition [PI3K];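 further: spheroids exposed to compound for 7 days before viability read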
# CONDITION_CONTEXT: curve of first compound; second compound 3.16 µM; spheroids with HUVEC and MSC
# Description: Combinatorial screen of targeted agents with the PI3K inhibitors inavolisib, alpelisib, duvelisib, and copanlisib in multi-cell type tumor spheroids A high-throughput screen of multi-cell type tumor spheroids was designed to identify active combinations of targeted small molecules and PI3K pathway inhibitors. […] Compounds. […] If the clinical Cmax for an agent had not been determined, the highest concentration tested was 10 microM. […]
QUANTITY_MEASURED: IC50

Q) Returns the measured IC50 for the input molecule. Input: C#Cc1c(F)ccc2cc(O)cc(-c3ncc4c(N5CC6CCC(C5)N6)nc(OCC56CCCN5CC(F)C6)nc4c3F)c12 (stereo not given) + Cc1nc(NC(=O)N2CCCC2C(N)=O)sc1-c1ccnc(C(C)(C)C(F)(F)F)c1
A) < 31.6 nM

Q) Returns the measured IC50 for the input molecule. Input: CC1(C)CCC(CN2CCN(c3ccc(C(=O)NS(=O)(=O)c4ccc(NCC5CCOCC5)c([N+](=O)[O-])c4)c(Oc4cnc5[nH]ccc5c4)c3)CC2)=C(c2ccc(Cl)cc2)C1 + CC(Nc1ncnc2nc[nH]c12)c1cc2cccc(Cl)c2c(=O)n1-c1ccccc1
A) 2590 nM

Q) Returns the measured IC50 for the input molecule. Input: Cn1ncnc1[C@H]1c2n[nH]c(=O)c3cc(F)cc(c23)N[C@@H]1c1ccc(F)cc1 + Cc1nc(NC(=O)N2CCCC2C(N)=O)sc1-c1ccnc(C(C)(C)C(F)(F)F)c1
A) < 0.316 nM

Q) Returns the measured IC50 for the input molecule. Input: CNC(=O)c1ccc(N2C(=S)N(c3ccc(C#N)c(C(F)(F)F)c3)C(=O)C2(C)C)cc1F + CC(Nc1ncnc2nc[nH]c12)c1cc2cccc(Cl)c2c(=O)n1-c1ccccc1
A) > 10000 nM

Q) Returns the measured IC50 for the input molecule. Input: C[C@@H](NC(=O)c1ncnc(N)c1Cl)c1ncc(C(=O)Nc2cc(C(F)(F)F)c(Cl)cn2)s1 + CC(Nc1ncnc2nc[nH]c12)c1cc2cccc(Cl)c2c(=O)n1-c1ccccc1
A) 3020 nM

Q) Returns the measured IC50 for the input molecule. Input: CNC(=O)c1ccc(N2C(=S)N(c3ccc(C#N)c(C(F)(F)F)c3)C(=O)C2(C)C)cc1F + Cc1nc(NC(=O)N2CCCC2C(N)=O)sc1-c1ccnc(C(C)(C)C(F)(F)F)c1
A) < 31.6 nM

Q) Returns the measured IC50 for the input molecule. Input: CC(C)NCC(C(=O)N1CCN(c2ncnc3c2C(C)CC3O)CC1)c1ccc(Cl)cc1 (stereo not given) + Cc1nc(NC(=O)N2CCCC2C(N)=O)sc1-c1ccnc(C(C)(C)C(F)(F)F)c1
A) < 31.6 nM

Q) Returns the measured IC50 for the input molecule. Input: C=CC(=O)N1CCN(c2nc(=O)n(-c3c(C)ccnc3C(C)C)c3nc(-c4c(O)cccc4F)c(F)cc23)C(C)C1 (stereo not given) + CC(Nc1ncnc2nc[nH]c12)c1cc2cccc(Cl)c2c(=O)n1-c1ccccc1
A) 9100 nM

Q) Returns the measured IC50 for the input molecule. Input: CC1(C)CCC(Nc2ncc(C(F)(F)F)c(-c3c[nH]c4c(P(C)(C)=O)c(C#N)ccc34)n2)CN1 (stereo not given) + Cc1nc(NC(=O)N2CCCC2C(N)=O)sc1-c1ccnc(C(C)(C)C(F)(F)F)c1
A) < 31.6 nM

Q) Returns the measured IC50 for the input molecule. Input: Cn1ncnc1[C@H]1c2n[nH]c(=O)c3cc(F)cc(c23)N[C@@H]1c1ccc(F)cc1 + CC(Nc1ncnc2nc[nH]c12)c1cc2cccc(Cl)c2c(=O)n1-c1ccccc1
A) > 100 nM
